This section presents sequences with their documented apparent KD of MS2 coat protein values.
system: MS2 coat protein; test: apparent KD of MS2 coat protein; designed switch direction (-1 OFF switch, 1 ON switch): -1; higher = weaker reporter binding; settings: input ligand: microRNA oligo, concentration not stated
readout-name: apparent KD of MS2 coat protein (nM)

[[record]]
primary_sequence = "ACAUGAGGAUCACCCAUGUGACAAGAAUGGCUGACACAGAGAUAGGAUAUAGGUGCAUAUCUAACCUAGAAGGGUCAUGACUGG [Deportation 76 - Jieux - Exclusion NG 3] (Eterna round: R96, puzzle: Exclusion NG 3)"
measured_on = "MS2 coat protein"
readout_name = "apparent KD of MS2 coat protein"
data_value = 23.3

[[record]]
primary_sequence = "GCGUUUUGGUGAGGAUAUCGGCCCUAAACCGGGCAACAUGAGGAUCACCCAUGUACGUGAUCCUGCGAGAAGGCACCGAUUAUA [Digeerle] (Eterna round: R96, puzzle: Exclusion NG 2)"
measured_on = "MS2 coat protein"
readout_name = "apparent KD of MS2 coat protein"
data_value = 104

[[record]]
primary_sequence = "UUGUUAUAUGUAGGAUAUGCGUAUUAUUAUUAGGCAGAAGGACAUGAGGAUCACCCAUGUAUGUUGUUGUUAUAUAUUAUAUAU [Title] (Eterna round: R96, puzzle: Exclusion NG 1)"
measured_on = "MS2 coat protein"
readout_name = "apparent KD of MS2 coat protein"
data_value = 20.6

[[record]]
primary_sequence = "AAUCCACAUGAGGAUCACCCAUGUGAGGAUAUGAUACUAUGUACUUCGGUACAUAGUAUCAGAAGGCACAUAAA [Ex1-3: 51] (Eterna round: R96, puzzle: Exclusion 1)"
measured_on = "MS2 coat protein"
readout_name = "apparent KD of MS2 coat protein"
data_value = 25.8

[[record]]
primary_sequence = "AACGUCUAGGUAGGAUAUCCACCAACAGGUGGAAGGAUAUGUUCGCAGAAGGUUCGCCAACAGGCGGAGAAGGACCUACGCGUA [pwkr exNG2 2xF7 2xFMN.31] (Eterna round: R96, puzzle: Exclusion NG 2)"
measured_on = "MS2 coat protein"
readout_name = "apparent KD of MS2 coat protein"
data_value = 24.6

